tested on: UACC-62 melanoma; test: NCI-60 one-dose screen, 48 h (100 = growth as untreated, 0 = no growth, -100 = all killed); details: 10 µM unless noted
About 83,000 compounds went through this panel and 20% of them were active in at least one assay; those are over-represented in the sample as a whole.
Classification scheme (growth): lower: < 40%; middle: ≥ 40% and < 90%; upper: ≥ 90%

Illustrative cases are given below, each with its answer.
Cc1nc2c(-c3cnc(N)nc3)nc(N3CCOCC3)nc2n1C(C)C: lower
Cc1ccc(CSCc2ccc(C(=O)NC3CC3)o2)cc1: middle
COC1CC(N)C2OC(c3ccccc3)OCC2O1 (centres undefined): upper
C=CCOc1c(Br)cc(Br)cc1Br: lower
CC(C)c1[nH]ncc1-c1nc2ccc3[nH]ncc3c2c2c1CCCC2: lower
Cc1cc(C)c2c(n1)sc1c(Nc3ccc(OCc4ccccc4)cc3)ncnc12: upper
CN(C)c1ccc(C(c2ccccc2)c2ccc(N(C)C)cc2)cc1: upper
CC(=O)OC1Oc2ccccc2-c2oc3nc(=N)n(C)c-3cc21 (centres undefined): upper

Q. Each molecule maps to one class by growth. Which class for OC(c1cc(-c2ccc(C(F)(F)F)cc2)nc(-c2ccc(C(F)(F)F)cc2)c1)C1CCCCN1 (centres undefined) ?
A. lower

Q. Would you kindly repeat that for COc1cc(-c2n/c(=C\c3c(O)[nH]c4cc(Cl)ccc34)cc3c2=Nc2ccccc2-3)cc(OC)c1OC ?
A. middle

Q. Would you kindly repeat that for COC(=O)CNS(=O)(=O)c1ccc2c(c1)Cc1cc(S(=O)(=O)NCC(=O)OC)ccc1-2 ?
A. upper

Q. Would you kindly repeat that for O=C(Cc1ccc(Nc2ccnc(C(F)(F)F)c2)cc1)N/N=C/c1ccccc1O ?
A. lower

* * *

Tested on: K-562 leukemia
Experiment: NCI-60 one-dose screen, 48 h (100 = growth as untreated, 0 = no growth, -100 = all killed)
Settings: 10 µM unless noted
Method: Cells are grown in 96 well plates and exposed to the test compound for 48 hours. Compounds are tested at a single concentration, which is 10^-5 M for most compounds. The reported endpoint is percent growth (GI% or GIPRCNT), where numbers from 0 - 100% represent growth inhibition, and numbers from -100% - 0 represent cell death. For example, a value of 40 represents 60% growth inhibition. A value of 0 means no net growth occurred over the course of the experiment. […]
About 83,000 compounds went through this panel and 20% of them were active in at least one assay; those are over-represented in the sample as a whole.
VALUE TYPE: growth (%)
Answers are plain numbers, in %.

Guide cases for growth, answers given:
CCCc1n(Cc2ccc3ccccc3n2)cc[n+]1Cc1ccc2ccccc2c1: 5.05
C[C@@H]1C[C@H](N)C[C@H](c2ccncc2NC(=O)c2ccc(F)c(-c3c(F)cccc3F)n2)C1: 11.4
CCCc1cc2c(cc1CN(Cc1cc3c(cc1CCC)OCO3)C(=N)OCC)OCO2: 63.4
C=C(CN1CC=CCC1)[C@@H]1CC[C@]2(C(=O)OC)CC[C@]3(C)[C@H](CC[C@@H]4[C@@]5(C)CC[C@H](OC(C)=O)C(C)(C)[C@@H]5CC[C@]43C)[C@@H]12: 57.9
N[C@@H](CO)C(=O)O: 110
COc1cc2nccc(Oc3ccc(NC(=O)C4(C(=O)Nc5ccc(F)cc5)CC4)cc3)c2cc1O: 9.3
CC1CN(CCCOC(=O)Nc2ccc(Cl)cc2)CCN1C(C)(C)C (centres undefined): 90.8
CCCN(CCC)CC(O)COc1ccccc1C(=O)Nc1ccccc1 (centres undefined): 22.3

Go through the list and state growth for each entry.
1. COc1ccc(Nc2ncnc3c2sc2nc(C)cc(C)c23)cc1
2. O=C(/C=C/c1ccccc1)n1c(-c2ccccc2)nc2ccccc21
3. COc1cccc(OCC(O)CN2CCN(c3ccccc3)CC2)c1 (centres undefined)

A.
1: 101; 2: 103; 3: 92.4

* * *

system: NCI-H460 lung; experiment: NCI-60 one-dose screen, 48 h; settings: 10 µM unless noted
About 83,000 compounds went through this panel and 20% of them were active in at least one assay; those are over-represented in the sample as a whole. Active and inactive are the calls of the source. Rule for the calls: active = growth percent below 10; inactive = the rest.
Field 'call' accepts label 1 (active), label 0 (inactive)

Illustrative cases are given below, each with its answer.
Cc1nc2n[nH]c(N)c2nc1C: label 0
NC(=Nc1ccccc1)SCCCSC(N)=Nc1ccccc1: label 0
COc1ccc(NC(=O)/C=C/c2ccc(Cl)c(Cl)c2)cn1: label 0
Nc1c(C(=O)Nc2cccc(Cl)c2)sc2ncc(Br)cc12: label 0

Q. Status in this test for CC1CN(CCCOC(=O)Nc2ccc(Cl)cc2)CCN1C(C)(C)C (stereo not given) ?
A. label 0

Q. Would you kindly repeat that for CCOC(=O)Nc1ccc2nc(-c3cscn3)[nH]c2c1 ?
A. label 0

* * *

Test system: RPMI-8226 leukemia
Experiment: NCI-60 one-dose screen, 48 h (100 = growth as untreated, 0 = no growth, -100 = all killed)
Conditions: 10 µM unless noted
Protocol: Growth inhibition of the RPMI-8226 human tumor cell line is measured as a screen for anti-cancer activity. Cells are grown in 96 well plates and exposed to the test compound for 48 hours. Compounds are tested at a single concentration, which is 10^-5 M for most compounds. The reported endpoint is percent growth (GI% or GIPRCNT), where numbers from 0 - 100% represent growth inhibition, and numbers from -100% - 0 represent cell death. For example, a value of 40 represents 60% growth inhibition. […]
Compounds without any hit were thinned out: in the full panel of roughly 83,000, 20% have a hit.
VALUE TYPE: growth (%)
Give bare numbers, in %.

Guide cases for growth, answers given:
Nc1nonc1-c1nc2ccccc2n1Cc1ccc(F)cc1: 64.4
Cc1cc(C)c2c(n1)sc1c(Nc3ccc(OCc4ccccc4)cc3)ncnc12: 95.1
Oc1ccc(Nc2ncnc3c2sc2ncccc23)cc1: 31.9

Go through the list and state growth for each entry.
1. Nc1nc(N)c2c(n1)NC(c1sc(Cl)nc1Cl)CC(c1ccccc1)=N2 (stereo not drawn)
2. CC(=O)O[C@H]1[C@H](CC#CC#CC[C@@H]2C[C@]3(C)[C@H]4CC=C5[C@H]6[C@@H](C)[C@H](C)CC[C@]6(C(=O)NCCCCCCCCN)CC[C@@]5(C)[C@]4(C)CC[C@H]3C(C)(C)[C@H]2OC(C)=O)C[C@]2(C)[C@H]3CC=C4[C@H]5[C@@H](C)[C@H](C)CC[C@]5(C(=O)NCCCCCCCCN)CC[C@@]4(C)[C@]3(C)CC[C@H]2C1(C)C

A.
45.3
95.6

Go through the list and state growth for each entry.
1. CC(=O)[C@H]1CC[C@H]2[C@@H]3CC[C@H]4CC=CC[C@]4(C)[C@H]3CC[C@]12C
2. O=C(O)c1cn(-c2ccccc2)nc1-c1ccc(O)cc1
3. COc1ccc(/C=C2\N=C(c3cccnc3)N(c3ccccc3)NC2=O)cc1

A.
1: 65.5; 2: 96.7; 3: 68.5

* * *

tested on: SK-OV-3 ovarian; assay: NCI-60 one-dose screen, 48 h (100 = growth as untreated, 0 = no growth, -100 = all killed); conditions: 10 µM unless noted
Compounds without any hit were thinned out: in the full panel of roughly 83,000, 20% have a hit.
Could you please report measured growth for the items listed next?
Numbers only, in %.

CN1CCN(Cc2ccc(NC(=O)c3cccc(C#Cc4cnc(N)c5ncccc45)c3F)cc2C(F)(F)F)CC1: 22.3

Go through the list and state growth for each entry.
1. CCCCC(CCc1ccccn1)C(=O)c1ccccc1 (stereo not given)
2. Cc1n(Cc2ccc3ccccc3n2)cc[n+]1Cc1ccc2ccccc2n1

A.
[110, 91.1]

Go through the list and state growth for each entry.
1. CN(C)CCOc1nc2c3ccncc3cc(-c3cccc(Cl)c3)c2c2cnccc12
2. CCCCNCC(O)c1cc2c(Cl)cc(Cl)cc2c2cc(C(F)(F)F)ccc12 (stereo not given)

A.
46.8
-22.8

* * *

test system: UACC-62 melanoma; experiment: NCI-60 one-dose screen, 48 h; conditions: 10 µM unless noted
This is part of a sample that, as a whole, favours compounds with a hit. Of some 83,000 tested, about 20% had one in any assay. Active and inactive are the calls of the source. How the source made its calls: active means growth percent below 10; inactive means the rest.
Field 'call' accepts 1.0 = active, 0.0 = inactive

CC(=O)[C@@]1(O)[C@H](C)C[C@H]2[C@@H]3C=C(C)C4=Cc5c(cnn5-c5ccccc5)C[C@]4(C)[C@H]3[C@@H](O)C[C@@]21C: 1.0

Q. Status in this test for COc1cc(C2CC(c3ccc(Nc4ccnc5cc(Cl)ccc45)cc3)=NN2c2ccccc2)cc(OC)c1OC (stereo unspecified) ?
A. 0.0

* * *

tested on: SK-OV-3 ovarian; test: NCI-60 one-dose screen, 48 h (100 = growth as untreated, 0 = no growth, -100 = all killed); details: 10 µM unless noted
The panel holds about 83,000 compounds, 20% with a hit somewhere; the sample as a whole holds those more often.
Could you please report measured growth for the items listed next?
One number for each entry, in %.

Nc1cc2nc3ccccc3oc-2cc1=O: 92.4

Go through the list and state growth for each entry.
1. COc1cc2c(cc1C)NC(=O)/C2=C\c1c[nH]c2ccccc12
2. NS(=O)(=O)c1ccc(N2N=C(c3ccc(Br)cc3)CC2c2cn(-c3ccccc3)nc2-c2ccc(Cl)cc2)cc1 (stereo not given)
3. COc1cccc(NC(=O)c2c(-c3ccccc3)c(-c3ccccc3)n[nH]c2=O)c1
4. COC(=O)C(C)NC1=C(Cl)C(=O)C(NC(C)C(=O)OC)=C(Cl)C1=O (stereo not given)

A.
1: 97.4; 2: 94.7; 3: 99.5; 4: 105
